Below: a set of entries, each annotated with reported A/B (index thérapeutique lié à la toxicité aiguë).
# Tested on: prise de nourriture chez le rat
# experimental protocol: Anorectic activity, food intake method in the rat
# Assay type: in vivo
# assay setup: i.p.; DL50/DE50

compound: FC(F)(F)c1cccc(C2=CCN(Cc3ccccc3)CC2)c1
result: 14,6

// next item, A/B (index thérapeutique lié à la toxicité aiguë) requested
**Q:** Tell me the measured A/B (index thérapeutique lié à la toxicité aiguë) of CN1CC=C(c2cccc(C(F)(F)F)c2)CC1 , please.
**A:** 15,2

---

# experimental protocol: Acute toxicity (DL50) in the rat
# assay setup: in vivo, po, os
Rule for this label: Criterion met means LD50 is less than 200 mg/kg; Criterion not met means LD50 is at least 200 mg/kg.

**Q:** Decide: LD50 of CCCN1CC=C(c2cccc(C(F)(F)F)c2)CC1 strictly below 200 mg/kg?
**A:** Criterion met

**Q:** Decide: LD50 of CCNC(C)Cc1cccc(C(F)(F)F)c1 (centres unmarked) [fenfluramine, reference compound] strictly below 200 mg/kg?
**A:** Criterion met

**Q:** Decide: LD50 of CCCCCN1CC=C(c2cccc(C(F)(F)F)c2)CC1 strictly below 200 mg/kg?
**A:** Criterion not met

**Q:** Decide: LD50 of FC(F)(F)c1cccc(C2=CCN(Cc3ccccc3)CC2)c1 strictly below 200 mg/kg?
**A:** Criterion not met

**Q:** Decide: LD50 of FC(F)(F)c1cccc(C2=CCNCC2)c1 strictly below 200 mg/kg?
**A:** Criterion not met
